# method: Antagonist activity against human P2X4R stably transfected in human 1321N1 cells assessed as ATP EC50 at 0.2 uM incubated for 30 mins by Fura-2 AM staining based calcium influx assay
measurement kind: pEC50
Would you please state pEC50, meaning minus log10 of the concentration in mol/L, as a bare number?

Query: pEC50; subject: O=C(NC(=S)Nc1c(Br)ccc(C(F)(F)F)c1Br)c1ccc2c(c1)OCO2 4.97

###

# method: Antagonist activity against human P2X7R stably transfected in human 1321N1 cells assessed as BzATP EC50 at 0.1 uM incubated for 30 mins by Fura-2 AM staining based calcium influx assay
measurement kind: pEC50
Lab note: report pEC50 as minus log10 of the concentration in molar units, number only.

# query: pEC50 of entry O=C(NC(=S)Nc1cccc2cccnc12)c1ccc2c(c1)OCO2 5.03
